assay: Test for Solubility in Water; format: physicochemical; details: room temperature

{"columns": ["molecule", "solubility"],
 "data": [
  ["COC(=O)c1c(C)[nH]c2c(OC(=O)N3CCN(C)CC3)cc3c(c12)C(CBr)CN3C(=O)/C=C/c1ccc(OC)c(OCCCN)c1 (stereo not shown) [Compound 32]", "> 20 mg/mL"],
  ["COC(=O)c1c(C)[nH]c2c(OC(C)=O)cc3c(c12)C(CCl)CN3C(=O)/C=C/c1ccc(OC)c(N(C)C)c1 (stereo not shown) [Compound 51]", "> 10 mg/mL"],
  ["COC(=O)c1c(C)[nH]c2c(OC(=O)NN3CCN(C)CC3)cc3c(c12)C(CBr)CN3C(=O)/C=C/c1ccc(OC)c(N(C)C)c1 (stereo not shown) [Compound 60]", "> 20 mg/mL"],
  ["COC(=O)c1c(C)[nH]c2c(OC(=O)c3ccc(CN4CCN(C)CC4)cc3)cc3c(c12)C(CBr)CN3C(=O)/C=C/c1ccc(OC)c(N(C)C)c1 (stereo not shown) [Compound 66]", "> 20 mg/mL"],
  ["COC(=O)c1c(C)[nH]c2c(OC(=O)N3CCN(C)CC3)cc3c(c12)C(CBr)CN3C(=O)/C=C/c1ccc(OC)nn1 (stereo not shown) [Compound 14]", "> 20 mg/mL"],
  ["COC(=O)c1c(C)[nH]c2c(OC(=O)CSCC(=O)O)cc3c(c12)C(CBr)CN3C(=O)/C=C/c1cnc(OC)nc1 (stereo not shown) [Compound 73]", "< 0.1 mg/mL"],
  ["COC(=O)c1c(C)[nH]c2c(OC(=O)N3CCN(C)CC3)cc3c(c12)C(CBr)CN3C(=O)/C=C/c1ccc(OC)c(N(C)C)c1 (stereo not shown) [Compound 43]", "< 0.5 mg/mL"],
  ["COC(=O)c1c(C)[nH]c2c(OC(=O)CN3CCN(C)CC3)cc3c(c12)C(CBr)CN3C(=O)/C=C/c1ccc(OC)c(N(C)C)c1 (stereo not shown) [Compound 82]", "> 10 mg/mL"],
  ["COC(=O)c1c(C)[nH]c2c(OC(=O)c3cccnc3)cc3c(c12)C(CBr)CN3C(=O)/C=C/c1ccc(OC)c(N(C)C)c1 (stereo not shown) [Compound 55]", "> 18 mg/mL"],
  ["COC(=O)c1c(C)[nH]c2c(OC(=O)c3nccnc3N)cc3c(c12)C(CBr)CN3C(=O)/C=C/c1ccc(OC)c(N(C)C)c1 (stereo not shown) [Compound 58]", "> 20 mg/mL"],
  ["COC(=O)c1c(C)[nH]c2c(OC(C)=O)cc3c(c12)C(CBr)CN3C(=O)/C=C/c1ccc(OC)c(N(C)C)c1 (stereo not shown) [Compound 45]", "> 20 mg/mL"],
  ["COC(=O)c1c(C)[nH]c2c(OC(=O)CN3CCC(N4CCCCC4)CC3)cc3c(c12)C(CBr)CN3C(=O)/C=C/c1ccc(OC)c(N(C)C)c1 (stereo not shown) [Compound 83]", "> 20 mg/mL"],
  ["CNN(C)C(=O)Oc1cc2c(c3c(C(=O)OC)c(C)[nH]c13)C(CBr)CN2C(=O)/C=C/c1ccc(OC)c(N(C)C)c1 (stereo not shown) [Compound 64]", "> 15 mg/mL"]
]}

###

test system: HeLaS3 cells; assay: Growth Inhibitory Effect Against HeLaS3 cells; format: cell-based; details: 72 hours

{"columns": ["compound", "IC50 [nM]"],
 "data": [
  ["COC(=O)c1c(C)[nH]c2c(OC(=O)NN3CCN(C)CC3)cc3c(c12)C(CBr)CN3C(=O)/C=C/c1cnc(OC)nc1 (stereo not shown) [Compound 72]", 1.6]
]}

###

test system: HeLaS3 cells; assay: Growth Inhibitory Effect Against HeLaS3 cells; format: cell-based; conditions: Homo sapiens, HeLa S3, 72 hours, read-out: IC50
experimental-readout: IC50 (nM)

{"columns": ["molecule", "experimental-readout", "reported"],
 "data": [
  ["COC(=O)c1c(C)[nH]c2c1C13CC1CN(C(=O)COc1ccc(OC)cc1)C3=CC2=O (centres unmarked) [Compound 18]", "IC50", 0.19],
  ["COC(=O)COc1cc(/C=C/C(=O)N2CC3CC34C2=CC(=O)c2[nH]c(C)c(C(=O)OC)c24)ccc1OC (centres unmarked) [Compound 34]", "IC50", 0.86],
  ["COC(=O)c1c(C)[nH]c2c1C13CC1CN(C(=O)/C=C/c1ccc(OC)c(OCCCN)c1)C3=CC2=O (centres unmarked) [Compound 30]", "IC50", 1.4],
  ["COC(=O)c1c(C)[nH]c2c(OC(=O)c3ccc(CN4CCN(C)CC4)cc3)cc3c(c12)C(CBr)CN3C(=O)/C=C/c1cnc(OC)nc1 (centres unmarked) [Compound 76]", "IC50", 1.3],
  ["COC(=O)c1c(C)[nH]c2c(O)cc3c(c12)C(CBr)CN3C(=O)/C=C/c1ccc(OC)c(N(C)C)c1 (centres unmarked) [Compound 81]", "IC50", 0.5],
  ["COC(=O)c1c(C)[nH]c2c(O)cc3c(c12)C(CCl)CN3C(=O)/C=C/c1ccc(OC)c(N(C)C)c1 (centres unmarked) [Compound 80]", "IC50", 0.44],
  ["COC(=O)c1c(C)[nH]c2c(OC(=O)CSCC(=O)O)cc3c(c12)C(CBr)CN3C(=O)/C=C/c1cnc(OC)nc1 (centres unmarked) [Compound 73]", "IC50", 1.2],
  ["COC(=O)c1c(C)[nH]c2c1C13CC1CN(C(=O)/C=C/c1ccc(N)cc1)C3=CC2=O (centres unmarked) [Compound 28]", "IC50", 2.6],
  ["COC(=O)c1c(C)[nH]c2c1C13CC1CN(C(=O)/C=C/c1ccc(OC)c(N)c1)C3=CC2=O (centres unmarked) [Compound 37]", "IC50", 0.53],
  ["COC(=O)c1c(C)[nH]c2c(OC(=O)NN(C)C)cc3c(c12)C(CBr)CN3C(=O)/C=C/c1ccc(OC)c(N(C)C)c1 (centres unmarked) [Compound 62]", "IC50", 0.62],
  ["COC(=O)c1c(C)[nH]c2c1C13CC1CN(C(=O)/C=C/c1ccc(NC(=O)OC(C)(C)C)cc1)C3=CC2=O (centres unmarked) [Compound 26]", "IC50", 0.56],
  ["COC(=O)c1c(C)[nH]c2c(OC(=O)CN3CCC(N4CCCCC4)CC3)cc3c(c12)C(CBr)CN3C(=O)/C=C/c1ccc(OC)c(N(C)C)c1 (centres unmarked) [Compound 83]", "IC50", 0.59],
  ["COC(=O)c1c(C)[nH]c2c(OC(C)=O)cc3c(c12)C(CCl)CN3C(=O)/C=C/c1ccc(OC)c(N(C)C)c1 (centres unmarked) [Compound 51]", "IC50", 0.46],
  ["COC(=O)c1c(C)[nH]c2c1C13CC1CN(C(=O)COc1ccc(OC(F)(F)F)cc1)C3=CC2=O (centres unmarked) [Compound 23]", "IC50", 1.6],
  ["COC(=O)c1c(C)[nH]c2c1C13CC1CN(C(=O)/C=C/c1ccc(OC)c(N(C)C)c1)C3=CC2=O (centres unmarked) [Compound 41]", "IC50", 0.92],
  ["COC(=O)c1c(C)[nH]c2c1C13CC1CN(C(=O)/C=C/c1cnc(OC)nc1)C3=CC2=O (centres unmarked) [Compound 6]", "IC50", 0.9],
  ["COC(=O)c1c(C)[nH]c2c1C13CC1CN(C(=O)/C=C/c1ccc(OC)nc1)C3=CC2=O (centres unmarked) [Compound 1]", "IC50", 0.42],
  ["COC(=O)c1c(C)[nH]c2c1C13CC1CN(C(=O)/C=C/c1ccc(OC)nn1)C3=CC2=O (centres unmarked) [Compound 12]", "IC50", 0.28],
  ["COC(=O)c1c(C)[nH]c2c1C13CC1CN(C(=O)/C=C/c1ccc(N(C)C)cc1)C3=CC2=O (centres unmarked) [Compound 27]", "IC50", 1.6],
  ["COC(=O)Oc1cc2c(c3c(C(=O)OC)c(C)[nH]c13)C(CBr)CN2C(=O)/C=C/c1ccc(OC)c(N)c1 (centres unmarked) [Compound 38]", "IC50", 0.67]
]}

###

Test: Test for Solubility in Water
Format: physicochemical
Settings: room temperature
Description: A sample tube was charged with 0.7 mg of Compound (I), and 30 μl of water were added thereto at room temperature. The mixture was stirred, and the solubility in water was measured. When the compound was not dissolved, 30 μl of water was added thereto successively, and the mixture was stirred. The solubility in water was measured when the compound was dissolved.
solubility listing for selected compounds.

{"columns": ["compound", "solubility"],
 "data": [
  ["COC(=O)c1c(C)[nH]c2c(O)cc3c(c12)C(CBr)CN3C(=O)/C=C/c1ccc(OC)c(N(C)C)c1 (stereo not shown)", "2.5 mg/mL"],
  ["COC(=O)c1c(C)[nH]c2c(OC(=O)N3CCN(C)CC3)cc3c(c12)C(CBr)CN3C(=O)/C=C/c1cnc(OC)nc1 (stereo not shown)", "> 20 mg/mL"],
  ["COC(=O)c1c(C)[nH]c2c(OC(=O)NN3CCN(C)CC3)cc3c(c12)C(CCl)CN3C(=O)/C=C/c1cnc(OC)nc1 (stereo not shown)", "> 10 mg/mL"],
  ["COC(=O)c1c(C)[nH]c2c(OC(=O)NN3CCN(C)CC3)cc3c(c12)C(CBr)CN3C(=O)/C=C/c1cnc(OC)nc1 (stereo not shown)", "> 10 mg/mL"],
  ["CCN(CC)c1cc(/C=C/C(=O)N2CC(CBr)c3c2cc(OC(=O)N2CCN(C)CC2)c2[nH]c(C)c(C(=O)OC)c32)ccc1OC (stereo not shown)", "> 20 mg/mL"],
  ["COC(=O)c1c(C)[nH]c2c(OC(=O)c3ccc(CN4CCN(C)CC4)cc3)cc3c(c12)C(CBr)CN3C(=O)/C=C/c1cnc(OC)nc1 (stereo not shown)", "> 10 mg/mL"],
  ["COC(=O)c1c(C)[nH]c2c(OC(=O)N3CCN(C)CC3)cc3c(c12)C(CBr)CN3C(=O)/C=C/c1ccc(OC)nc1 (stereo not shown)", "> 20 mg/mL"],
  ["COC(=O)c1c(C)[nH]c2c(OC(=O)N3CCN(C)CC3)cc3c(c12)C(CBr)CN3C(=O)/C=C/c1ccc(OC)cn1 (stereo not shown)", "> 20 mg/mL"],
  ["COC(=O)c1c(C)[nH]c2c(OC(=O)N3CCN(C)CC3)cc3c(c12)C(CBr)CN3C(=O)/C=C/c1ccc(N(C)C)cc1 (stereo not shown)", "> 20 mg/mL"],
  ["COC(=O)c1c(C)[nH]c2c(OC(=O)NN(C)C)cc3c(c12)C(CBr)CN3C(=O)/C=C/c1ccc(OC)c(N(C)C)c1 (stereo not shown)", "> 20 mg/mL"],
  ["COC(=O)c1c(C)[nH]c2c(O)cc3c(c12)C(CCl)CN3C(=O)/C=C/c1ccc(OC)c(N(C)C)c1 (stereo not shown)", "> 15 mg/mL"],
  ["COC(=O)c1c(C)[nH]c2c(OC(=O)N3CCN(C)CC3)cc3c(c12)C(CBr)CN3C(=O)/C=C/c1ccc(OC)c(N)c1 (stereo not shown)", "> 20 mg/mL"],
  ["COC(=O)c1c(C)[nH]c2c(OC(=O)N3CCN(C)CC3)cc3c(c12)C(CBr)CN3C(=O)COc1ccc(OC(F)(F)F)cc1 (stereo not shown)", "0.2 mg/mL"]
]}
